biological target: UniProt:Q13547; assay: Inhibition of HDAC1 (unknown origin) at 1 uM incubated for 30 mins by fluorometric analysis
Sequence (Q13547 whole entry): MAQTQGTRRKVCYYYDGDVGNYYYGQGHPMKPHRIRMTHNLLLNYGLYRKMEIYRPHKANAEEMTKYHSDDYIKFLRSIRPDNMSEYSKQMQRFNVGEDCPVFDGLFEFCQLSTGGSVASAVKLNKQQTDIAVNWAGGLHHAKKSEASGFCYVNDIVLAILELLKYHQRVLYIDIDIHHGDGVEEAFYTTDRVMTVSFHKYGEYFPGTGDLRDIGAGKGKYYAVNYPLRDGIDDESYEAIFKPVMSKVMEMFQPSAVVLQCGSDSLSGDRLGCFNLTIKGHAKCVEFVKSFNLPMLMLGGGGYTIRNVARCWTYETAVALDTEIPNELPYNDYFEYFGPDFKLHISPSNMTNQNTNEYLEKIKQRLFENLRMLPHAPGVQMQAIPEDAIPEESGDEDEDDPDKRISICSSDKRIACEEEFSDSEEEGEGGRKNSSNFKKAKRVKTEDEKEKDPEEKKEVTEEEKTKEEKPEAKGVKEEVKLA
readout: inhibition (%)

So what inhibition did `O=C(NO)c1ccc(CN2C(=O)C3=C(CCN(Cc4cccc(Br)c4)C3)N3CCN=C23)cc1` get with UniProt:Q13547?
36.4

So what inhibition did `Cc1cccc(CN2CCC3=C(C2)C(=O)N(Cc2ccc(C(=O)NO)cc2)C2=NCCN23)c1` get with UniProt:Q13547?
44.7

So what inhibition did `O=C(NO)c1ccc(CN2C(=O)C3=C(CCN(Cc4cccc(F)c4)C3)N3CCN=C23)cc1` get with UniProt:Q13547?
47.9

[P] COc1cccc(CN2CCC3=C(C2)C(=O)N(Cc2ccc(C(=O)NO)cc2)C2=NCCN23)c1
[Q] Cc1ccccc1CN1CCC2=C(C1)C(=O)N(Cc1ccc(C(=O)NO)cc1)C1=NCCN12
Endpoint returns whichever of P and Q has the numerically higher inhibition. Use the label to indicate which entry you chose.
P
(P: 59.3%, Q: 32.4%)

---

biological target: UniProt O15379; assay: Inhibition of HDAC3 (unknown origin) at 1 uM incubated for 30 mins by fluorometric analysis
readout: inhibition (%)

Fill blank: measured inhibition of the molecule `Cc1cccc(CN2CCC3=C(C2)C(=O)N(Cc2ccc(C(=O)NO)cc2)C2=NCCN23)c1` is ____.
50.6

Fill blank: measured inhibition of the molecule `Cc1ccc(CN2CCC3=C(C2)C(=O)N(Cc2ccc(C(=O)NO)cc2)C2=NCCN23)cc1` is ____.
53.1

Fill blank: measured inhibition of the molecule `O=C(NO)c1ccc(CN2C(=O)C3=C(CCN(Cc4ccc(Cl)c(C(F)(F)F)c4)C3)N3CCN=C23)cc1` is ____.
43.8

[A] COc1cccc(CN2CCC3=C(C2)C(=O)N(Cc2ccc(C(=O)NO)cc2)C2=NCCN23)c1
[B] O=C(NO)c1ccc(CN2C(=O)C3=C(CCN(Cc4cccnc4)C3)N3CCN=C23)cc1
Of the pair A and B , name the member with the lesser recorded inhibition. Use the label to indicate which entry you chose.
B
(B: 36.2%, A: 52.3%)

---

tested on: NIH3T3; assay: Antiproliferative activity against mouse NIH/3T3 cells assessed as inhibition of cell growth incubated for 24 to 48 hrs by CCK8 assay; format: functional, cell-based
Entries annotated with measured pIC50
When answering, recall that pIC50 equals minus log10 of the concentration in mol/L, and write that number alone.

Example entries and their recorded answers appear below.
So what pIC50 did `O=C(NO)c1ccc(CN2C(=O)C3=C(CCN(Cc4cccc(F)c4)C3)N3CCN=C23)cc1` get with NIH3T3?
5.19

So what pIC50 did `O=C(NO)c1ccc(CN2C(=O)C3=C(CCN(Cc4cccc(C(F)(F)F)c4Cl)C3)N3CCN=C23)cc1` get with NIH3T3?
5.17

So what pIC50 did `COc1cccc(CN2CCC3=C(C2)C(=O)N(Cc2ccc(C(=O)NO)cc2)C2=NCCN23)c1` get with NIH3T3?
4.94

***
So what pIC50 did `O=C(NO)c1ccc(CN2C(=O)C3=C(CCN(Cc4cccc(Cl)c4)C3)N3CCN=C23)cc1` get with NIH3T3?
6.05

So what pIC50 did `Cc1ccc(CN2CCC3=C(C2)C(=O)N(Cc2ccc(C(=O)NO)cc2)C2=NCCN23)cc1` get with NIH3T3?
5.79

So what pIC50 did `O=C(CCCCCCNC(=O)c1cnc(N(c2ccccc2)c2ccccc2)nc1)NO` get with NIH3T3?
5.45

So what pIC50 did `O=C(NO)c1ccc(CN2C(=O)C3=C(CCN(Cc4ccc(Cl)c(C(F)(F)F)c4)C3)N3CCN=C23)cc1` get with NIH3T3?
5.01

So what pIC50 did `O=C(NO)c1ccc(CN2C(=O)C3=C(CCN(Cc4cccnc4)C3)N3CCN=C23)cc1` get with NIH3T3?
5.08

So what pIC50 did `O=C(NO)c1ccc(CN2C(=O)C3=C(CCN(Cc4ccccc4)C3)N3CCN=C23)cc1` get with NIH3T3?
6.00

---

Molecular target: Histone deacetylase 8 (Homo sapiens) (UniProt Q9BY41)
Sequence (whole entry): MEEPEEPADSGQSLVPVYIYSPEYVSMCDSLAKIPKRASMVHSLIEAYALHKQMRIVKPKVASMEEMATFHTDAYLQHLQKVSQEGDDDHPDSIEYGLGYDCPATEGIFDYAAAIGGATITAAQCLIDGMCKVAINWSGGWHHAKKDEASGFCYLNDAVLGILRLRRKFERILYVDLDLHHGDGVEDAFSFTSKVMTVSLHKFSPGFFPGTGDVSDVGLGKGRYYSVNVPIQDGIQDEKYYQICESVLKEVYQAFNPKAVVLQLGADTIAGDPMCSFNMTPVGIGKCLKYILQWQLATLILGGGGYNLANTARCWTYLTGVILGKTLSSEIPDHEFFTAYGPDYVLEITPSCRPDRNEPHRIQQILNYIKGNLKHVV
Experiment: Inhibition of HDAC8 (unknown origin) at 1 uM incubated for 30 mins by fluorometric analysis
readout: inhibition (%)

Fill blank: measured inhibition of the molecule `O=C(NO)c1ccc(CN2C(=O)C3=C(CCN(Cc4cccc(Br)c4)C3)N3CCN=C23)cc1` is ____.
76

Fill blank: measured inhibition of the molecule `Cc1ccccc1CN1CCC2=C(C1)C(=O)N(Cc1ccc(C(=O)NO)cc1)C1=NCCN12` is ____.
69.8

Fill blank: measured inhibition of the molecule `O=C(NO)c1ccc(CN2C(=O)C3=C(CCN(Cc4ccc(Cl)c(C(F)(F)F)c4)C3)N3CCN=C23)cc1` is ____.
48.2

[A] O=C(NO)c1ccc(CN2C(=O)C3=C(CCN(Cc4cccc(C(F)(F)F)c4Cl)C3)N3CCN=C23)cc1
[B] O=C(NO)c1ccc(CN2C(=O)C3=C(CCN(Cc4cccc(Cl)c4)C3)N3CCN=C23)cc1
Of the pair A and B , name the member with the lesser recorded inhibition. Use the label to indicate which entry you chose.
A
(A: 31%, B: 76.2%)

---

target: Histone deacetylase 3 (Homo sapiens, UniProt O15379); assay: Inhibition of HDAC3 (unknown origin) at 1 uM incubated for 30 mins by fluorometric analysis
Sequence (O15379 whole entry): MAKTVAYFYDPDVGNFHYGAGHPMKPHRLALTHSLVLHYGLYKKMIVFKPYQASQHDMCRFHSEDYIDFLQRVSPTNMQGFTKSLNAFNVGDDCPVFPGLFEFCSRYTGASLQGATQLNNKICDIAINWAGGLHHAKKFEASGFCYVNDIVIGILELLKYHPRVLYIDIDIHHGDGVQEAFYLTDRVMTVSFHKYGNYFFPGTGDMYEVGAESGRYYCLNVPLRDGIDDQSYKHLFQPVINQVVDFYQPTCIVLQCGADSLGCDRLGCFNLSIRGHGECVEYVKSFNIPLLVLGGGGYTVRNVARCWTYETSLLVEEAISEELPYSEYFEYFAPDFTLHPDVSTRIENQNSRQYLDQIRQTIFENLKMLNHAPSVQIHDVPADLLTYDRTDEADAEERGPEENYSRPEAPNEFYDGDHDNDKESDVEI
readout: inhibition (%)

Fill blank: measured inhibition of the compound `O=C(NO)c1ccc(CN2C(=O)C3=C(CCN(Cc4cccc(C(F)(F)F)c4Cl)C3)N3CCN=C23)cc1` is ____.
52.7

Fill blank: measured inhibition of the compound `Cc1ccccc1CN1CCC2=C(C1)C(=O)N(Cc1ccc(C(=O)NO)cc1)C1=NCCN12` is ____.
51.2

Fill blank: measured inhibition of the compound `O=C(NO)c1ccc(CN2C(=O)C3=C(CCN(Cc4ccccc4)C3)N3CCN=C23)cc1` is ____.
51.9

Fill blank: measured inhibition of the compound `O=C(NO)c1ccc(CN2C(=O)C3=C(CCN(Cc4cccc(Cl)c4)C3)N3CCN=C23)cc1` is ____.
50.8

Fill blank: measured inhibition of the compound `O=C(NO)c1ccc(CN2C(=O)C3=C(CCN(Cc4cccc(Br)c4)C3)N3CCN=C23)cc1` is ____.
56.6

Fill blank: measured inhibition of the compound `O=C(NO)c1ccc(CN2C(=O)C3=C(CCN(Cc4cccc(F)c4)C3)N3CCN=C23)cc1` is ____.
56.4

---

molecular target: UniProtKB Q13547; assay: Inhibition of HDAC1 (unknown origin) at 1 uM incubated for 30 mins by fluorometric analysis
readout: inhibition (%)

Example entries and their recorded answers appear below.
Fill blank: measured inhibition of the molecule `O=C(NO)c1ccc(CN2C(=O)C3=C(CCN(Cc4cccnc4)C3)N3CCN=C23)cc1` is ____.
9.3

Fill blank: measured inhibition of the molecule `O=C(NO)c1ccc(CN2C(=O)C3=C(CCN(Cc4cccc(Cl)c4)C3)N3CCN=C23)cc1` is ____.
56.1

Fill blank: measured inhibition of the molecule `O=C(NO)c1ccc(CN2C(=O)C3=C(CCN(Cc4ccc(Cl)c(C(F)(F)F)c4)C3)N3CCN=C23)cc1` is ____.
27.2

Fill blank: measured inhibition of the molecule `Cc1ccc(CN2CCC3=C(C2)C(=O)N(Cc2ccc(C(=O)NO)cc2)C2=NCCN23)cc1` is ____.
31.8

[1] O=C(NO)c1ccc(CN2C(=O)C3=C(CCN(Cc4ccccc4)C3)N3CCN=C23)cc1
[2] O=C(NO)c1ccc(CN2C(=O)C3=C(CCN(Cc4cccc(C(F)(F)F)c4Cl)C3)N3CCN=C23)cc1
Endpoint returns whichever of 1 and 2 has the numerically higher inhibition. Use the label to indicate which entry you chose.
1

---

Target: Protein deacetylase HDAC6 (Homo sapiens, UniProt Q9UBN7)
Sequence (Q9UBN7 whole entry): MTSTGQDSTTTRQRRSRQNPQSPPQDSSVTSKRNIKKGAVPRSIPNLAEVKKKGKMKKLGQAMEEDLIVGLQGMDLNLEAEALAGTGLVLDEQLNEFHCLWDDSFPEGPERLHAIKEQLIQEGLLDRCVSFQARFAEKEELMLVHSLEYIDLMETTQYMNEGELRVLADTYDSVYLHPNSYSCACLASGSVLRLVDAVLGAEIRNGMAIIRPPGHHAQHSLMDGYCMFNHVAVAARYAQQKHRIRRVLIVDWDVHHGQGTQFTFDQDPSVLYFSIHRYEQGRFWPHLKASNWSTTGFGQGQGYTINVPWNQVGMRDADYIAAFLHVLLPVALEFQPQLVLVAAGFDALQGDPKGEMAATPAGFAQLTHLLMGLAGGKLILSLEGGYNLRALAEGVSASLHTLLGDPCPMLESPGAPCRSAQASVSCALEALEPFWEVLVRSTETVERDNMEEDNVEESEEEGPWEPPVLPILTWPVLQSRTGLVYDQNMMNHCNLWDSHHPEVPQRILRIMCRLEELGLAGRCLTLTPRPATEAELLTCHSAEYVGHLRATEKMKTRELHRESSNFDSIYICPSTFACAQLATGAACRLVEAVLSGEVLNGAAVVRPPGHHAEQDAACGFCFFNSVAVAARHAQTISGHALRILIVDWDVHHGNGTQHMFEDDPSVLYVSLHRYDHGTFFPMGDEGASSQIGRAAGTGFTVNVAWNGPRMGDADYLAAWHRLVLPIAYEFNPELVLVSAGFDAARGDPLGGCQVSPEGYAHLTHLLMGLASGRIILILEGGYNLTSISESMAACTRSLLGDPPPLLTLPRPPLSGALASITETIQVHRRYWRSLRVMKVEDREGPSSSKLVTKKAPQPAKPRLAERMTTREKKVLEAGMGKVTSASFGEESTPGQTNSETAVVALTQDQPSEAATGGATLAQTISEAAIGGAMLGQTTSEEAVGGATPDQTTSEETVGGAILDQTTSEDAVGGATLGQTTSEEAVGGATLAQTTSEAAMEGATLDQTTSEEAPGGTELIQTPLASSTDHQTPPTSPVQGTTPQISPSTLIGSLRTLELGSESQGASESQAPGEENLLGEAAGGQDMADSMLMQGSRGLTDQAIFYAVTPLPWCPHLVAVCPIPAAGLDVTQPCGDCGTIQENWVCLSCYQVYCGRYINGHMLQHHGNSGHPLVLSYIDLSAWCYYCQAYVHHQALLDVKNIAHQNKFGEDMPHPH
pIC50: −log10 of the molar value.
readout: pIC50

Fill blank: measured pIC50 of the compound `O=C(NO)c1ccc(CN2C(=O)C3=C(CCN(Cc4cccc(C(F)(F)F)c4Cl)C3)N3CCN=C23)cc1` is ____.
7.22

[A] Cc1ccccc1CN1CCC2=C(C1)C(=O)N(Cc1ccc(C(=O)NO)cc1)C1=NCCN12
[B] O=C(NO)c1ccc(CN2C(=O)C3=C(CCN(Cc4cccnc4)C3)N3CCN=C23)cc1
Of the pair A and B , name the member with the lesser recorded pIC50. Use the label to indicate which entry you chose.
B
(B: 6.86, A: 7.32)
